System: Enterococcus faecium
assay_notes: Antibacterial activity against Enterococcus faecium clinical isolate 20-16 assessed as inhibition of bacterial growth incubated for 24 hrs by CLSI protocol based broth microdilution method
Type: functional
assay_metric: MIC

Task item: Quote MIC reported for CN[C@H](CC(C)C)C(=O)N[C@H]1C(=O)N[C@@H](CC(N)=O)C(=O)N[C@H]2C(=O)N[C@H]3C(=O)N[C@H](C(=O)N[C@H](C(=O)NCCCc4cn(-c5ccc(OC(F)F)cc5)nn4)c4cc(O)cc(O)c4-c4cc3ccc4O)[C@H](O)c3ccc(c(Cl)c3)Oc3cc2cc(c3O[C@@H]2O[C@H](CO)[C@@H](O)[C@H](O)[C@H]2O[C@H]2C[C@](C)(N)[C@H](O)[C@H](C)O2)Oc2ccc(cc2Cl)[C@H]1O please.
Reply: 0.125 µg/mL

Task item: Quote MIC reported for CN[C@H](CC(C)C)C(=O)N[C@H]1C(=O)N[C@@H](CC(N)=O)C(=O)N[C@H]2C(=O)N[C@H]3C(=O)N[C@H](C(=O)N[C@H](C(=O)O)c4cc(O)cc(O)c4-c4cc3ccc4O)[C@H](O)c3ccc(c(Cl)c3)Oc3cc2cc(c3O[C@@H]2O[C@H](CO)[C@@H](O)[C@H](O)[C@H]2O[C@H]2C[C@](C)(NCCCc3cn(Cc4ccc(Cl)c(Cl)c4)nn3)[C@H](O)[C@H](C)O2)Oc2ccc(cc2Cl)[C@H]1O please.
Reply: ≤ 0.03 µg/mL

Task item: Quote MIC reported for CN[C@H](CC(C)C)C(=O)N[C@H]1C(=O)N[C@@H](CC(N)=O)C(=O)N[C@H]2C(=O)N[C@H]3C(=O)N[C@H](C(=O)N[C@H](C(=O)O)c4cc(O)cc(O)c4-c4cc3ccc4O)[C@H](O)c3ccc(c(Cl)c3)Oc3cc2cc(c3O[C@@H]2O[C@H](CO)[C@@H](O)[C@H](O)[C@H]2O[C@H]2C[C@](C)(NCc3ccc(Oc4ccccc4)cc3)[C@H](O)[C@H](C)O2)Oc2ccc(cc2Cl)[C@H]1O please.
Reply: ≤ 0.03 µg/mL
